target entity: bFGF (basic fibroblast growth factor) (UniProt P09038 P09038:143-288)
Sequence (P09038 143-288, one chain of several): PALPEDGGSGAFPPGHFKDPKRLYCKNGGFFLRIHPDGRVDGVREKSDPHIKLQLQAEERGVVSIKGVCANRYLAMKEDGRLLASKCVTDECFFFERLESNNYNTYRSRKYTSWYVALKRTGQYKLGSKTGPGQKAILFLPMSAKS
assay info: 5'-32P binding assay; identical to 225T3
test parameters: label: 5'-32P; hairpin
parameter measured: Kd (nM)
Just the number please, in nM, no unit attached.

[ask] Entry under review: GCGGGGCTACGTACCGGGGCTTTGTAAAACCCCGC (ssDNA, 3'-tetraethyleneglycol cholesterol) [225T3-Cholesterol] . Reported Kd?
[reply] 1

Data credit: patent US6147204
